tested on: GST-ATAF1 NAC domain (Arabidopsis thaliana, UniProt Q39013 7-158)
Sequence: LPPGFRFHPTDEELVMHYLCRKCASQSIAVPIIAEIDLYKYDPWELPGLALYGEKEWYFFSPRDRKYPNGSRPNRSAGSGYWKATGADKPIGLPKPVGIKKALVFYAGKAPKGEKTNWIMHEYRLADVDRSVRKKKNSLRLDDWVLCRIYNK
method description: universal protein binding microarray (PBM); transcription factors of Arabidopsis thaliana; high values mean tight binding
condition summary: protein: recombinant; tags: GST; chain copies: 2; dsDNA, one strand shown
Here the recorded binding signal is given for each entry.
assay metric: binding signal

sequence	assay metric	measured
CAGTTGAC	binding signal	0.112 E-score
AATACGCA	binding signal	0.142 E-score
ATTGACTG	binding signal	0.0846 E-score
GTTTCCTA	binding signal	0.212 E-score
ATTCCGTG	binding signal	0.3 E-score
AAGTAAGC	binding signal	0.199 E-score
CTACGTTA	binding signal	0.228 E-score
CAGTCAAA	binding signal	0.11 E-score
CTTTCTTC	binding signal	0.117 E-score
ACGTAAGC	binding signal	0.352 E-score
ACGTAAAC	binding signal	0.321 E-score
TTCGTCAA	binding signal	0.106 E-score

# credit: paper PMC4081100
